target_system: AR protein (Homo sapiens, UniProt P10275, T878A)
Construct: degradation activity of the compounds disclosed in the present disclosure on AR protein in LNCaP cells; host or cells: LNCaP FGC
Sequence (P10275 whole entry T878A): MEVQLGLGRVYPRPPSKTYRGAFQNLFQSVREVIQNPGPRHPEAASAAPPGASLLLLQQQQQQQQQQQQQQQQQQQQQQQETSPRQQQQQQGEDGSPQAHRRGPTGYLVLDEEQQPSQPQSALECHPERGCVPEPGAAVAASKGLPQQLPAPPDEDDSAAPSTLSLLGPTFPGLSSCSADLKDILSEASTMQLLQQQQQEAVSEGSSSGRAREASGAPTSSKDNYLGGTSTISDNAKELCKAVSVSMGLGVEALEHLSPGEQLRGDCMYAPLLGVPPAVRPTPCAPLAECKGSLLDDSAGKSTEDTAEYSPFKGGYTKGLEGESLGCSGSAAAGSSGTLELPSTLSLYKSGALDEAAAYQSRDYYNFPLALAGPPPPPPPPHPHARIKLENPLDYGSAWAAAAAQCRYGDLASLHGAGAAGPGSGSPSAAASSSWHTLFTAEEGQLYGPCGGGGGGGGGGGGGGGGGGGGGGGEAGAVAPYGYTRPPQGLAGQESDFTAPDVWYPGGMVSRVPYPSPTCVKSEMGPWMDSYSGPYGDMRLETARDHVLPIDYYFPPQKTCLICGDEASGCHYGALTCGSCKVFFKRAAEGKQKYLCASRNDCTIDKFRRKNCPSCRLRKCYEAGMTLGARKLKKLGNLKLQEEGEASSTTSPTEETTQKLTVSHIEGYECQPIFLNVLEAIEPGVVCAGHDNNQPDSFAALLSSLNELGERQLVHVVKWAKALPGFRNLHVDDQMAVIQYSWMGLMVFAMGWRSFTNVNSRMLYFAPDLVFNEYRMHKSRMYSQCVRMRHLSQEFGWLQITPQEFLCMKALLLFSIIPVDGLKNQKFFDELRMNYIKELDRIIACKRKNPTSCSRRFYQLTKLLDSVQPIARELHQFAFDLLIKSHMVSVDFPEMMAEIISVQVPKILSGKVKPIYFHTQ
test_description: Degradation of AR protein in LNCaP cells (Western blot)
Type: cell-based
experimental_parameters: LNCaP cells, compound 10 nM, 8 hours, Western blot grayscale, GAPDH internal reference; read-out: Degradation rates of the AR protein in LNCaP cells, 10 nM (%)
Method: The degradation activity of the compounds disclosed in the present disclosure on AR protein in LNCaP cells (cell source: ATCC) Corresponding solvent controls were also set and cultured for 8 hours. After 8 hours of cultivation, the culture medium was removed and the cells were washed with PBS. […] The protein concentration in the extract was detected by BCA method. […] Bands were analyzed in grayscale using Image Studio software. For each sample, GAPDH protein bands were detected as internal reference. […]
So basically: inhibition at 0.01 µM at 30% or higher? That is fulfilled. Lower than 30%? That is not fulfilled.

[[record]]
compound = "COc1cc(O[C@H]2C(C)(C)[C@H](NC(=O)c3ccc(N4CCC(F)(CN5CCC6(CC5)COc5cc7c(cc5O6)CN(C5CCC(=O)NC5=O)C7=O)CC4)cc3)C2(C)C)ccc1C#N (stereo partly shown)"
target_system = "AR protein (Homo sapiens, UniProt P10275, T878A)"
label_class = "not fulfilled"

[[record]]
compound = "N#Cc1ccc(O[C@H]2CC[C@H](NC(=O)c3ccc(N4CCC5(CCC(N6CCC7(CC6)COc6c7ccc7c6CN(C6CCC(=O)NC6=O)C7=O)CC5)CC4)nn3)CC2)cc1Cl (stereo partly shown)"
target_system = "AR protein (Homo sapiens, UniProt P10275, T878A)"
label_class = "fulfilled"

[[record]]
compound = "N#Cc1ccc(O[C@H]2CC[C@H](NC(=O)c3ccc(N4CC5(CC(C(=O)N6CCC7(CC6)COc6c7ccc7c6CN(C6CCC(=O)NC6=O)C7=O)C5)C4)nn3)CC2)cc1Cl (stereo partly shown)"
target_system = "AR protein (Homo sapiens, UniProt P10275, T878A)"
label_class = "fulfilled"

[[record]]
compound = "N#Cc1ccc(O[C@H]2CC[C@H](NC(=O)c3ccc(N4CCC5(CC4)COc4cc6c(cc45)C(=O)N(C4CCC(=O)NC4=O)C6=O)nn3)CC2)cc1Cl (stereo partly shown)"
target_system = "AR protein (Homo sapiens, UniProt P10275, T878A)"
label_class = "fulfilled"

[[record]]
compound = "N#Cc1ccc(O[C@H]2CC[C@H](NC(=O)c3ccc(N4CCC5(CC4)CC(F)(F)c4cc6c(cc4O5)C(=O)N(C4CCC(=O)NC4=O)C6=O)nn3)CC2)cc1Cl (stereo partly shown)"
target_system = "AR protein (Homo sapiens, UniProt P10275, T878A)"
label_class = "not fulfilled"

[[record]]
compound = "N#Cc1ccc(O[C@H]2CC[C@H](NC(=O)c3cnc(N4CCC(F)(CN5CCC6(CC5)COc5c6ccc6c5CN(C5CCC(=O)NC5=O)C6=O)CC4)nc3)CC2)cc1Cl (stereo partly shown)"
target_system = "AR protein (Homo sapiens, UniProt P10275, T878A)"
label_class = "fulfilled"

[[record]]
compound = "N#Cc1ccc(O[C@H]2CC[C@H](NC(=O)c3ccc(N4CCC5(CCC(N6CCC7(CC6)COc6cc8c(cc6C7)C(=O)N(C6CCC(=O)NC6=O)C8=O)CC5)CC4)nn3)CC2)cc1Cl (stereo partly shown)"
target_system = "AR protein (Homo sapiens, UniProt P10275, T878A)"
label_class = "fulfilled"

[[record]]
compound = "COc1cc(O[C@H]2CC[C@H](NC(=O)c3cnc(N4CCC(CN5CCC6(CC5)COc5c6ccc6c5C(=O)N(C5CCC(=O)NC5=O)C6=O)(OC)CC4)nc3)CC2)ccc1C#N (stereo partly shown)"
target_system = "AR protein (Homo sapiens, UniProt P10275, T878A)"
label_class = "fulfilled"

[[record]]
compound = "COc1cc(O[C@H]2C(C)(C)[C@H](NC(=O)c3ccc(N4CCC(CN5CCC6(CC5)COc5c6ccc6c5C(=O)N(C5CCC(=O)NC5=O)C6=O)CC4)cc3)C2(C)C)ccc1C#N (stereo partly shown)"
target_system = "AR protein (Homo sapiens, UniProt P10275, T878A)"
label_class = "fulfilled"

[[record]]
compound = "CCOC1(CN2CCC3(CC2)COc2c3ccc3c2CN(C2CCC(=O)NC2=O)C3=O)CCN(c2ccc(C(=O)N[C@H]3CC[C@H](Oc4ccc(C#N)c(Cl)c4)CC3)nn2)CC1 (stereo partly shown)"
target_system = "AR protein (Homo sapiens, UniProt P10275, T878A)"
label_class = "not fulfilled"

